These data points were gathered from patent US4104390A.

This listing pairs compounds with measured inhibition in vivo at 100 mg/kg.
System: ovalbumen-induced systemic edema
Assay: Ovalbumen-induced systemic edema method
Assay type: in vivo
Conditions: Rattus norvegicus, po; rats, 100 mg/kg orally 1 hour before and with ovalbumen; 3 hours after ovalbumen; read-out: Percent anti-inflammatory activity after 3 hours
Enter your answer as a number in %; do not include the unit.

{"compound": "CC1NCc2sccc2C1c1ccccc1 (centres unmarked)", "tested.system": "ovalbumen-induced systemic edema", "measured.value": 54}

I have this compound here, c1ccc(C2CNCc3ccsc32)cc1 (centres unmarked) , and I need its recorded inhibition in vivo at 100 mg/kg. 62

How about this compound: Clc1ccc(C2CN(Cc3ccccc3Cl)Cc3sccc32)cc1 (centres unmarked) 56

What about CCCCN1Cc2ccsc2C(c2ccccc2)C1 (centres unmarked) ? 57

Note, next up: COc1cc(CN2Cc3sccc3C(c3ccccc3)C2)cc(OC)c1OC (centres unmarked) 52

# iterate: c1ccc(CN2Cc3ccsc3C(c3ccccc3)C2)cc1 (centres unmarked) 47

Another compound: Clc1ccccc1CN1Cc2sccc2C(c2ccccc2)C1 (centres unmarked) 58

And what about the compound c1ccc(CN2Cc3sccc3C(c3ccccc3)C2)cc1 (centres unmarked) ? 55

And for Clc1ccccc1CN1Cc2ccsc2C(c2ccccc2)C1 (centres unmarked) ? 57

And what about the compound Fc1ccccc1CN1Cc2sccc2C(c2ccccc2)C1 (centres unmarked) ? 50

Further, for c1ccc(CCN2Cc3sccc3C(c3ccccc3)C2)cc1 (centres unmarked) ? 51

How about O=[N+]([O-])c1ccc(CN2Cc3sccc3C(c3ccccc3)C2)cc1 (centres unmarked) ? 51

Repeat for the following compound: COC(=O)c1ccccc1CN1Cc2sccc2C(c2ccccc2)C1 (centres unmarked) 62

Field entry: N#Cc1ccccc1CN1Cc2sccc2C(c2ccccc2)C1 (centres unmarked) 54

Same question, COc1ccc(CN2Cc3ccsc3C(c3ccccc3)C2)cc1 (centres unmarked) this time 56

And then Cc1ccc(C2CN(Cc3ccccc3Cl)Cc3sccc32)cc1 (centres unmarked) , what is it? 60

Quick one: COc1ccc(C2CN(Cc3ccccc3Cl)Cc3sccc32)cc1 (centres unmarked) 59

// same read-out, input: O=C(O)c1ccccc1CN1Cc2sccc2C(c2ccccc2)C1 (centres unmarked) 56

Here is the next compound: N#Cc1ccccc1CN1Cc2ccsc2C(c2ccccc2)C1 (centres unmarked) 54

Then this compound: CC1C(c2ccccc2)c2sccc2CN1Cc1ccc([N+](=O)[O-])cc1 (centres unmarked) 57

---

Each entry below carries its reported inhibition in vivo at 100 mg/kg.
System: carrageenin-induced localized edema
Experiment: Carrageenin-induced localized edema method
Type: in vivo
Conditions: Rattus norvegicus, po; rats, 100 mg/kg orally at -1, 0, 1 and 2.5 hours; 1 hour after carrageenin; read-out: Percent anti-inflammatory activity after 1 hour
Give the number first and the unit second.

Some solved cases for reference:
{"molecule": "Cc1ccc(C2CN(Cc3ccccc3Cl)Cc3sccc32)cc1 (stereo not drawn)", "measured.property": "inhibition in vivo at 100 mg/kg", "measured.value": "38%"}
{"molecule": "CC1NCc2ccsc2C1c1ccccc1 (stereo not drawn)", "measured.property": "inhibition in vivo at 100 mg/kg", "measured.value": "42%"}
{"molecule": "Clc1ccccc1CN1Cc2ccsc2C(c2ccccc2)C1 (stereo not drawn)", "measured.property": "inhibition in vivo at 100 mg/kg", "measured.value": "47%"}
{"molecule": "CCCCN1Cc2ccsc2C(c2ccccc2)C1 (stereo not drawn)", "measured.property": "inhibition in vivo at 100 mg/kg", "measured.value": "38%"}
{"molecule": "COc1ccc(C2CN(Cc3ccccc3Cl)Cc3sccc32)cc1 (stereo not drawn)", "measured.property": "inhibition in vivo at 100 mg/kg", "measured.value": "44%"}

What measured inhibition in vivo at 100 mg/kg goes with Clc1ccc(C2CN(Cc3ccccc3Cl)Cc3sccc32)cc1 (stereo not drawn) ? 44%

Please do the same for N#Cc1ccccc1CN1Cc2sccc2C(c2ccccc2)C1 (stereo not drawn) as well. 42%

How about CC1NCc2sccc2C1c1ccccc1 (stereo not drawn) ? 37%

Then what about the molecule c1ccc(CN2Cc3sccc3C(c3ccccc3)C2)cc1 (stereo not drawn) ? 47%

Please answer likewise for COC(=O)c1ccccc1CN1Cc2ccsc2C(c2ccccc2)C1 (stereo not drawn) 41%

Request: O=C(O)c1ccccc1CN1Cc2sccc2C(c2ccccc2)C1 (stereo not drawn) 39%

Also check CN1Cc2ccsc2C(c2ccccc2)C1 (stereo not drawn) 45%

Here is the next molecule: CC1C(c2ccccc2)c2sccc2CN1Cc1ccc([N+](=O)[O-])cc1 (stereo not drawn) 41%

Further, for COc1ccc(CN2Cc3ccsc3C(c3ccccc3)C2)cc1 (stereo not drawn) ? 38%

Could you do the same for COc1cc(CN2Cc3sccc3C(c3ccccc3)C2)cc(OC)c1OC (stereo not drawn) , please? 37%

Record: c1ccc(C2CNCc3ccsc32)cc1 (stereo not drawn) 38%

Same question for Clc1ccccc1CN1Cc2sccc2C(c2ccccc2)C1 (stereo not drawn) please. 39%

What do you have for O=[N+]([O-])c1ccc(CN2Cc3sccc3C(c3ccccc3)C2)cc1 (stereo not drawn) ? 42%

Thanks! And N#Cc1ccccc1CN1Cc2ccsc2C(c2ccccc2)C1 (stereo not drawn) ? 44%

Further, for c1ccc(CCN2Cc3ccsc3C(c3ccccc3)C2)cc1 (stereo not drawn) ? 43%

Would you kindly repeat that for c1ccc(CN2Cc3ccsc3C(c3ccccc3)C2)cc1 (stereo not drawn) ? 41%

COC(=O)c1ccccc1CN1Cc2sccc2C(c2ccccc2)C1 (stereo not drawn) ? 39%

Further, for c1ccc(CCN2Cc3sccc3C(c3ccccc3)C2)cc1 (stereo not drawn) ? 47%

Further, for Fc1ccccc1CN1Cc2sccc2C(c2ccccc2)C1 (stereo not drawn) ? 46%

What about this molecule? CC1C(c2ccccc2)c2sccc2CN1Cc1ccccc1Cl (stereo not drawn) 39%

Also need CN1Cc2sccc2C(c2ccccc2)C1 (stereo not drawn) , thanks. 37%

Now give it for c1ccc(C2CNCc3sccc32)cc1 (stereo not drawn) too. 41%
